# test_target: UniProtKB Q08881
# Sequence (Q08881 1-620): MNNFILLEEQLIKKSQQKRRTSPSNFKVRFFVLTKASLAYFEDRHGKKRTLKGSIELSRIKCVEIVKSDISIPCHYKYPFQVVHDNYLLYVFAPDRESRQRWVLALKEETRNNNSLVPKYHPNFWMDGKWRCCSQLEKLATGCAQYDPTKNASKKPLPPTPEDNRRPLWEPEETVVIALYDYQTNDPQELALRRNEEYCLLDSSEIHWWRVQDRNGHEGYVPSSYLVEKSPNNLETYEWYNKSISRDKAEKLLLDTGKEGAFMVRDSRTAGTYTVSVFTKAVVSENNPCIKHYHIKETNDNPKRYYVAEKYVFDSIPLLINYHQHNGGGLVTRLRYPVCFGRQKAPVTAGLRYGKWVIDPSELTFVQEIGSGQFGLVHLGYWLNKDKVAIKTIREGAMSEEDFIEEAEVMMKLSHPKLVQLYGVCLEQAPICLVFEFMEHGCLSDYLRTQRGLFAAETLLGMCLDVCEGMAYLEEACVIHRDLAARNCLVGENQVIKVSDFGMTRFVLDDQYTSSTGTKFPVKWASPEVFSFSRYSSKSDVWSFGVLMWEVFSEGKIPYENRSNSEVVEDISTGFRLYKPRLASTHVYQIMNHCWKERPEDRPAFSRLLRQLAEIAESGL
metric: IC50 (nM)
One number for each entry, in nM.

The reported value for CCS(=O)(=O)N1CCN(c2ccc(Nc3ncc(C(N)=O)c(NC4CC4)n3)cc2)CC1 in terms of IC50 is 194
